Target: aurora A kinase (AURKA) (Homo sapiens, UniProt O14965)
Construct: purchased BPS Bioscience (assay run externally by the vendor)
Sequence (O14965 whole entry): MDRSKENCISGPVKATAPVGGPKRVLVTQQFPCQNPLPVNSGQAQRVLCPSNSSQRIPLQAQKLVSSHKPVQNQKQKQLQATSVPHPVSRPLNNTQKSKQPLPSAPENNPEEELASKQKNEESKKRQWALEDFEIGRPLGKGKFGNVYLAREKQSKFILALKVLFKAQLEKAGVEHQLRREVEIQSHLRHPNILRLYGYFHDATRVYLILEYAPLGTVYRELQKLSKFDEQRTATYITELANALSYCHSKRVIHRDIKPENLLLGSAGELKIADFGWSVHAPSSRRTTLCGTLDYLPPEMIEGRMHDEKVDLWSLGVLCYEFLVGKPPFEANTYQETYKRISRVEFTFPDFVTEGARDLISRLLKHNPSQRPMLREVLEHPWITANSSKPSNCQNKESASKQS
Experiment: ADP-Glo kinase assay, Aurora A
Assay type: biochemical
Conditions: Log[nM] 4.0; Set1
Please use Y for Aurora A % Activity Set1 under 30% and N for everything else, ties included.

structure-string	class-name
c1ccc(Oc2ccc(Nc3ncnc4[nH]ccc34)cc2)cc1	N
Clc1ccccc1Nc1ncnc2[nH]ccc12	Y
Cc1ccc(Nc2ncnc3[nH]ccc23)cc1	N
Brc1cccc(Nc2ncnc3[nH]ccc23)c1	Y
c1ccc(Cc2ccc(Nc3ncnc4[nH]ccc34)cc2)cc1	N
Brc1ccc(Nc2ncnc3[nH]ccc23)cc1	Y
Cc1cccc(Nc2ncnc3[nH]ccc23)c1	Y
Clc1cccc(Nc2ncnc3[nH]ccc23)c1	Y
FC(F)(F)c1cccc(Nc2ncnc3[nH]ccc23)c1	N
Clc1ccc(Nc2ncnc3[nH]ccc23)cc1Cl	Y
Cc1ccccc1Nc1ncnc2[nH]ccc12	N
